Tested on: 186277-243-T-J2-PDC multi-cell spheroid viability
Assay comment: Anticancer human tumor 186277-243-T-J2-PDC patient-derived colon adenocarcinoma cell line growth inhibition [PI3K]; active = viability on the fitted dose curve at most 10% of control; inactive = the rest
Experimental conditions: second compound 0.316 µM; first compound 0.0316 µM
Source text: Combinatorial screen of targeted agents with the PI3K inhibitors inavolisib, alpelisib, duvelisib, and copanlisib in multi-cell type tumor spheroids A high-throughput screen of multi-cell type tumor spheroids was designed to identify active combinations of targeted small molecules and PI3K pathway inhibitors. […] Compounds. […] If the clinical Cmax for an agent had not been determined, the highest concentration tested was 10 microM. […]
Outcome codes: active, inactive

INSERT INTO assay_data (molecule, tgt, class_label) VALUES
  ('CNC(=O)c1ccc(N2C(=S)N(c3ccc(C#N)c(C(F)(F)F)c3)C(=O)C2(C)C)cc1F + COc1c(OCCCN2CCOCC2)ccc2c3n(c(=NC(=O)c4cnc(N)nc4)nc12)CCN3', '186277-243-T-J2-PDC multi-cell spheroid viability', 'active'),
  ('CC(=O)c1c(C)c2cnc(Nc3ccc(N4CCNCC4)cn3)nc2n(C2CCCC2)c1=O + CC(Nc1ccc2c(c1)OCCn1cc(N3C(=O)OCC3C(F)F)nc1-2)C(N)=O', '186277-243-T-J2-PDC multi-cell spheroid viability', 'inactive'),
  ('Cn1ncc(Cl)c1-c1cc(C(=O)NC(CN)Cc2cccc(F)c2)sc1Cl (stereo unspecified) + Cc1nc(NC(=O)N2CCCC2C(N)=O)sc1-c1ccnc(C(C)(C)C(F)(F)F)c1', '186277-243-T-J2-PDC multi-cell spheroid viability', 'inactive'),
  ('CC(C)n1nc(-c2ccc3oc(N)nc3c2)c2c(N)ncnc21 + CC(Nc1ccc2c(c1)OCCn1cc(N3C(=O)OCC3C(F)F)nc1-2)C(N)=O', '186277-243-T-J2-PDC multi-cell spheroid viability', 'inactive'),
  ('C[C@@H](NC(=O)c1ncnc(N)c1Cl)c1ncc(C(=O)Nc2cc(C(F)(F)F)c(Cl)cn2)s1 + COc1c(OCCCN2CCOCC2)ccc2c3n(c(=NC(=O)c4cnc(N)nc4)nc12)CCN3', '186277-243-T-J2-PDC multi-cell spheroid viability', 'active'),
  ('CC(Cn1ccc(-c2ccc(C#N)c(Cl)c2)n1)NC(=O)c1cc(C(C)O)[nH]n1 (stereo unspecified) + CC(Nc1ncnc2nc[nH]c12)c1cc2cccc(Cl)c2c(=O)n1-c1ccccc1', '186277-243-T-J2-PDC multi-cell spheroid viability', 'inactive'),
  ('CCN1CCN(Cc2ccc(Nc3ncc(F)c(-c4cc(F)c5nc(C)n(C(C)C)c5c4)n3)nc2)CC1 + Cc1nc(NC(=O)N2CCCC2C(N)=O)sc1-c1ccnc(C(C)(C)C(F)(F)F)c1', '186277-243-T-J2-PDC multi-cell spheroid viability', 'inactive'),
  ('CC(Cn1ccc(-c2ccc(C#N)c(Cl)c2)n1)NC(=O)c1cc(C(C)O)[nH]n1 (stereo unspecified) + CC(Nc1ccc2c(c1)OCCn1cc(N3C(=O)OCC3C(F)F)nc1-2)C(N)=O', '186277-243-T-J2-PDC multi-cell spheroid viability', 'inactive'),
  ('Cn1ncnc1[C@H]1c2n[nH]c(=O)c3cc(F)cc(c23)N[C@@H]1c1ccc(F)cc1 + COc1c(OCCCN2CCOCC2)ccc2c3n(c(=NC(=O)c4cnc(N)nc4)nc12)CCN3', '186277-243-T-J2-PDC multi-cell spheroid viability', 'active'),
  ('Cn1ncnc1[C@H]1c2n[nH]c(=O)c3cc(F)cc(c23)N[C@@H]1c1ccc(F)cc1 + Cc1nc(NC(=O)N2CCCC2C(N)=O)sc1-c1ccnc(C(C)(C)C(F)(F)F)c1', '186277-243-T-J2-PDC multi-cell spheroid viability', 'inactive'),
  ('Cn1ncnc1[C@H]1c2n[nH]c(=O)c3cc(F)cc(c23)N[C@@H]1c1ccc(F)cc1 + CC(Nc1ccc2c(c1)OCCn1cc(N3C(=O)OCC3C(F)F)nc1-2)C(N)=O', '186277-243-T-J2-PDC multi-cell spheroid viability', 'inactive');

* * *

Reported viability, T/C by item:
Tested on: 186277-243-T-J2-PDC multi-cell spheroid viability
Assay comment: Anticancer human tumor 186277-243-T-J2-PDC cell line growth inhibition [PI3K];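 also: spheroids exposed to compounds for seven days before viability reading; 100% = DMSO vehicle control viability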
Experimental conditions: second compound 0.01 µM; first compound 0.01 µM; hits give low values
Measure name: viability, T/C (%)

INSERT INTO results (molecule, reported) VALUES
  ('CCN1CCN(Cc2ccc(Nc3ncc(F)c(-c4cc(F)c5nc(C)n(C(C)C)c5c4)n3)nc2)CC1 + COc1c(OCCCN2CCOCC2)ccc2c3n(c(=NC(=O)c4cnc(N)nc4)nc12)CCN3', 107),
  ('Cn1ncnc1[C@H]1c2n[nH]c(=O)c3cc(F)cc(c23)N[C@@H]1c1ccc(F)cc1 + CC(Nc1ccc2c(c1)OCCn1cc(N3C(=O)OCC3C(F)F)nc1-2)C(N)=O', 102),
  ('CC(=O)c1c(C)c2cnc(Nc3ccc(N4CCNCC4)cn3)nc2n(C2CCCC2)c1=O + CC(Nc1ccc2c(c1)OCCn1cc(N3C(=O)OCC3C(F)F)nc1-2)C(N)=O', 101),
  ('CC(=O)c1c(C)c2cnc(Nc3ccc(N4CCNCC4)cn3)nc2n(C2CCCC2)c1=O + COc1c(OCCCN2CCOCC2)ccc2c3n(c(=NC(=O)c4cnc(N)nc4)nc12)CCN3', 91.7),
  ('Cn1ncnc1[C@H]1c2n[nH]c(=O)c3cc(F)cc(c23)N[C@@H]1c1ccc(F)cc1 + COc1c(OCCCN2CCOCC2)ccc2c3n(c(=NC(=O)c4cnc(N)nc4)nc12)CCN3', 98.3),
  ('CCN1CCN(Cc2ccc(Nc3ncc(F)c(-c4cc(F)c5nc(C)n(C(C)C)c5c4)n3)nc2)CC1 + CC(Nc1ccc2c(c1)OCCn1cc(N3C(=O)OCC3C(F)F)nc1-2)C(N)=O', 85),
  ('CC(C)n1nc(-c2ccc3oc(N)nc3c2)c2c(N)ncnc21 + CC(Nc1ccc2c(c1)OCCn1cc(N3C(=O)OCC3C(F)F)nc1-2)C(N)=O', 93.1),
  ('CC(C)n1nc(-c2ccc3oc(N)nc3c2)c2c(N)ncnc21 + COc1c(OCCCN2CCOCC2)ccc2c3n(c(=NC(=O)c4cnc(N)nc4)nc12)CCN3', 89.8);

* * *

Reported viability, T/C by item:
Test system: 186277-243-T-J2-PDC multi-cell spheroid viability
Assay comment: Anticancer human tumor 186277-243-T-J2-PDC cell line growth inhibition [PI3K];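 also: spheroids exposed to compounds for seven days before viability reading; 100% = DMSO vehicle control viability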
Experimental conditions: second compound 3.16 µM; first compound 0.1 µM; hits give low values
Measure name: viability, T/C

INSERT INTO assay_data (molecule, reported) VALUES
  ('Cn1ncnc1[C@H]1c2n[nH]c(=O)c3cc(F)cc(c23)N[C@@H]1c1ccc(F)cc1 + CC(Nc1ncnc2nc[nH]c12)c1cc2cccc(Cl)c2c(=O)n1-c1ccccc1', '99.1%'),
  ('CCCS(=O)(=O)Nc1ccc(F)c(C(=O)c2c[nH]c3ncc(-c4ccc(Cl)cc4)cc23)c1F + CC(Nc1ncnc2nc[nH]c12)c1cc2cccc(Cl)c2c(=O)n1-c1ccccc1', '94.6%'),
  ('C#Cc1c(F)ccc2cc(O)cc(-c3ncc4c(N5CC6CCC(C5)N6)nc(OCC56CCCN5CC(F)C6)nc4c3F)c12 (stereo not given) + CC(Nc1ncnc2nc[nH]c12)c1cc2cccc(Cl)c2c(=O)n1-c1ccccc1', '26.3%'),
  ('C=CC(=O)N1CCN(c2nc(=O)n(-c3c(C)ccnc3C(C)C)c3nc(-c4c(O)cccc4F)c(F)cc23)C(C)C1 (stereo not given) + CC(Nc1ncnc2nc[nH]c12)c1cc2cccc(Cl)c2c(=O)n1-c1ccccc1', '91.1%'),
  ('CC1(C)CCC(CN2CCN(c3ccc(C(=O)NS(=O)(=O)c4ccc(NCC5CCOCC5)c([N+](=O)[O-])c4)c(Oc4cnc5[nH]ccc5c4)c3)CC2)=C(c2ccc(Cl)cc2)C1 + Cc1nc(NC(=O)N2CCCC2C(N)=O)sc1-c1ccnc(C(C)(C)C(F)(F)F)c1', '61.3%');

Reference source for all entries: PubChem BioAssay AID1963983
